# SYSTEM: human ether-à-go-go-related gene (hERG) potassium channel (human, UniProt Q12809)
# Sequence (Q12809 whole entry, looked up): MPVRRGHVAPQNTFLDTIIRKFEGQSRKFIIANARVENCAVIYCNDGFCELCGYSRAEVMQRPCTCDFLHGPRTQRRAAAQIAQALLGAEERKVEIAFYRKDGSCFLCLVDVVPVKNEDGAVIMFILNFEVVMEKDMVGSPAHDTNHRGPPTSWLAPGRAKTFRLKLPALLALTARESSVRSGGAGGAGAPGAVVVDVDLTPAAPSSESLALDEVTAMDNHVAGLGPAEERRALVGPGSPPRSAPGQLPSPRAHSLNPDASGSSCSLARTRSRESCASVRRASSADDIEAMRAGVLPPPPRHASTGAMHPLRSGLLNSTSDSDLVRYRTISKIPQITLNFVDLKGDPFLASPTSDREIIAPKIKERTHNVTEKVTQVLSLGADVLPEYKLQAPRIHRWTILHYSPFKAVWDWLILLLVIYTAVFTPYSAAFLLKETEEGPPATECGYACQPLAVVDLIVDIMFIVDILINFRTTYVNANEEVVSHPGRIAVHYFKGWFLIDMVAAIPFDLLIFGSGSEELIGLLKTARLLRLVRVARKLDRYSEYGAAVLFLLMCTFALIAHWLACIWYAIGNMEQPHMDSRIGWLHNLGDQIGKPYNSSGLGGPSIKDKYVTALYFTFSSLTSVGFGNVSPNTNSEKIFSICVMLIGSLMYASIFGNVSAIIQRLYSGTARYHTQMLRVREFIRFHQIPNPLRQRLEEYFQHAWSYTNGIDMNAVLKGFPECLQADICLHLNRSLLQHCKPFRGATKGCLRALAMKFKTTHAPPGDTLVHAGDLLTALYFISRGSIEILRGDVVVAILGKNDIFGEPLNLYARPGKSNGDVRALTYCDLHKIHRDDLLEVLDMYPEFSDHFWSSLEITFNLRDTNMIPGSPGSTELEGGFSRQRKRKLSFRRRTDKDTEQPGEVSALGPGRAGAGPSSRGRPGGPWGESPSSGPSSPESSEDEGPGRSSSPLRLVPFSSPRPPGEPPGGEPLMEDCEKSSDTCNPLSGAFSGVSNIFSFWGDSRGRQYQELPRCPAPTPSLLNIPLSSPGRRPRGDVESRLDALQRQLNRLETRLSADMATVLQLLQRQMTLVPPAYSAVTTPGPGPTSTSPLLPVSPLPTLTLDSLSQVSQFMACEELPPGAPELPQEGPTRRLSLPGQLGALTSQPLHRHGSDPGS
# METHOD SUMMARY: primary screen, population patch clamp on CHO cells stably expressing hERG; higher = less effect of the substance
About 14,000 (4.5%) of roughly 310,000 compounds showed an effect of 50% or more. Effects have a minus sign here. The sample holds strong results, similar compounds and a random draw of the others, so the mix is not that of the screen.
For each entry below, report its hERG current change (%, negative = inhibition) at 10uM value.
Answer in %, number only, no unit symbol.

Task: Tell me reported hERG current change (%, negative = inhibition) at 10uM for O=S(=O)(c1ccc(Cl)cc1)N1CCN2CCCC2C1 (stereo not shown) , tested with human ether-à-go-go-related gene (hERG) potassium channel (human, UniProt Q12809).
Output: -6.01

Task: Hi! What's the reported hERG current change (%, negative = inhibition) at 10uM for `O=C(c1noc2c1CCCC2)N1CCC(CO)(Cc2ccccc2Cl)CC1` on human ether-à-go-go-related gene (hERG) potassium channel (human, UniProt Q12809)?
Output: -22.9

Task: Fill in the recorded hERG current change (%, negative = inhibition) at 10uM for this compound, with human ether-à-go-go-related gene (hERG) potassium channel (human, UniProt Q12809) as test system: `NS(=O)(=O)c1cccnc1Nc1cccc(Cl)c1`
Output: 11.8

Task: Recorded hERG current change (%, negative = inhibition) at 10uM for Cc1onc(-c2ccccc2)c1C(=O)NC(C)c1ccc2c(c1)OCO2 (stereo not shown) with human ether-à-go-go-related gene (hERG) potassium channel (human, UniProt Q12809), please?
Output: 27.7

Task: Form entry - test system: human ether-à-go-go-related gene (hERG) potassium channel (human, UniProt Q12809); read-out: hERG current change (%, negative = inhibition) at 10uM; compound: `CCn1c(CNC(=O)c2ccc3c(c2)OCO3)nnc1SCC(=O)Nc1ccccc1F`
Output: -6.31

Task: Please provide the recorded hERG current change (%, negative = inhibition) at 10uM for OCC1(Cc2cccc(Cl)c2)CCCN(Cc2ccc(F)c(F)c2)C1 (stereo not shown) , tested on human ether-à-go-go-related gene (hERG) potassium channel (human, UniProt Q12809).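 Further: peak tail current of the secondary pulse compared with the same well before compound.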
Output: -51.2

Task: Give recorded hERG current change (%, negative = inhibition) at 10uM with human ether-à-go-go-related gene (hERG) potassium channel (human, UniProt Q12809) for the following compound: `Cn1cc(C2=C(c3ccc(Cl)cc3Cl)C(=O)NC2=O)c2ccccc21`
Output: 33

Task: Write down the reported hERG current change (%, negative = inhibition) at 10uM of `Cc1cccc(NCc2ccc([N+](=O)[O-])s2)c1` , test system: human ether-à-go-go-related gene (hERG) potassium channel (human, UniProt Q12809).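 Further: peak tail current of the secondary pulse compared with the same well before compound.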
Output: -26.7

Task: Record Cc1cccc(-c2ncc(CN3CCCC(CO)(Cc4cccc(Cl)c4)C3)cn2)c1 (stereo not shown) : what is its hERG current change (%, negative = inhibition) at 10uM with human ether-à-go-go-related gene (hERG) potassium channel (human, UniProt Q12809)?
Output: -20.6

Task: Can you look up hERG current change (%, negative = inhibition) at 10uM on human ether-à-go-go-related gene (hERG) potassium channel (human, UniProt Q12809) for `Oc1ccc(Br)cc1-c1cc(-c2ccc(Cl)cc2)n[nH]1` ?
Output: 7.99

---

For each record, write down the corresponding hERG current change (%, negative = inhibition) at 10uM.
# SYSTEM: human ether-à-go-go-related gene (hERG) potassium channel (human, UniProt Q12809);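 further: peak tail current of the secondary pulse compared with the same well before compound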
# METHOD SUMMARY: primary screen, population patch clamp on CHO cells stably expressing hERG; higher = less effect of the substance
In all, about 310,000 compounds went through this assay and about 14,000 (4.5%) showed an effect of 50% or more. The effect is printed as a negative number. Only a selection was taken, and strong results are over-represented in it overall.
Quick reminder: number only, in %, skip the unit.

Task: # hERG current change (%, negative = inhibition) at 10uM lookup, item `Cc1ccc(NC(=O)c2ccc(OC(=O)c3cc4ccccc4o3)cc2)cc1`
Output: 8.66

Task: Suppose we examine the compound `O=C(COC(=O)C1CCC1)Nc1ccccc1Sc1ccccc1` ; what hERG current change (%, negative = inhibition) at 10uM value has been reported?
Output: 7.34

Task: I would be grateful if you could share the reported hERG current change (%, negative = inhibition) at 10uM for `c1ccc(CN2CCC(Nc3ncnc4sccc34)CC2)cc1` .
Output: -66.9

Task: Record request: hERG current change (%, negative = inhibition) at 10uM value, item `COc1ccc(CNC(=O)COC(=O)c2[nH]c(C)c(C(C)=O)c2C)cc1OC`
Output: 1.28

Task: Entry `NC(=O)CSc1nnc(-c2cccs2)n1Cc1ccco1` : reported hERG current change (%, negative = inhibition) at 10uM = ?
Output: -13.9

---

# SYSTEM: human ether-à-go-go-related gene (hERG) potassium channel (human);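 further: peak tail current of the secondary pulse compared with the same well before compound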
# METHOD SUMMARY: primary screen, population patch clamp on CHO cells stably expressing hERG; higher = less effect of the substance
The campaign covered roughly 310,000 compounds. About 14,000 (4.5%) showed an effect of 50% or more. The effect is printed as a negative number. The list comes from a sample in which strong results are over-represented; it also holds close analogues and randomly drawn compounds.
ENDPOINT NAME: hERG current change (%, negative = inhibition) at 10uM (%)
Express the result in % but write the number alone.

Task: Please look up its hERG current change (%, negative = inhibition) at 10uM: `O=C(Nc1cccc(Cl)c1)N(CCN1CCOCC1)Cc1ccccc1F`
Output: -49.6

Task: Could you tell me which hERG current change (%, negative = inhibition) at 10uM is on file for `c1ccc(Nc2c3c(nc4ncnn24)CCC3)cc1` ?
Output: -54.5

Task: Using the record for O=C(O)C1CSC(c2ccccc2Cl)N1C(=O)c1ccc(Cl)cc1 (centres unmarked) , report its hERG current change (%, negative = inhibition) at 10uM.
Output: 14.9

Task: # lookup: hERG current change (%, negative = inhibition) at 10uM of `COc1cccc(OC)c1C(=O)Nc1ccc2c(c1)Cc1ccccc1-2`
Output: 15.5

Task: So what does the record say about hERG current change (%, negative = inhibition) at 10uM for `CCc1ccc2[nH]c(=O)c(CN(CCCN3CCOCC3)C(=O)Nc3ccccc3)cc2c1` ?
Output: -54.2

Task: Item under review: `O=C(c1ccco1)N1CCN(C(=O)c2ccc(COc3ccc(F)cc3)o2)CC1` . Reported hERG current change (%, negative = inhibition) at 10uM?
Output: -62.6

Task: Give the measured hERG current change (%, negative = inhibition) at 10uM of `COc1ccc(NS(=O)(=O)c2ccc(NC(=O)Cc3cccs3)cc2)cc1` .
Output: 12.7

Task: Which hERG current change (%, negative = inhibition) at 10uM reading was recorded for the compound `CCN1CCN(C(=O)c2ccc(COc3ccc(Cl)cc3)o2)CC1` ?
Output: -52.5

Task: Looking for the measured hERG current change (%, negative = inhibition) at 10uM of `O=C(Nc1ccc(F)cc1)N(CCCN1CCOCC1)Cc1cc2cc3c(cc2[nH]c1=O)OCO3` , can you help?
Output: -49.3

Task: Would you mind telling me what hERG current change (%, negative = inhibition) at 10uM value was observed for `O=C(CCN1C(=O)c2cccc3cccc(c23)C1=O)N1CCOCC1` ?
Output: 19.9

Task: // query hERG current change (%, negative = inhibition) at 10uM value for entry `COc1ccc(/C=C2\SC(=S)N(Cc3cccnc3)C2=O)cc1C`
Output: -3.04

Task: So what does the record say about hERG current change (%, negative = inhibition) at 10uM for `CCc1ccc2[nH]c(=O)c(CN(CCCN3CCOCC3)C(=O)Nc3ccc(F)cc3)cc2c1` ?
Output: -68.1

Task: Request the reported hERG current change (%, negative = inhibition) at 10uM associated with C=CCNc1c2c(nc3ncnn13)CC(C)CC2 (centres unmarked)
Output: -14.8

Task: What value of hERG current change (%, negative = inhibition) at 10uM has been recorded for this entry: `CCN1CCN(c2ccc(S(=O)(=O)N3CCOCC3)cc2NC(=O)CCC(C)C)CC1`
Output: -26.3

Task: Tell me the measured hERG current change (%, negative = inhibition) at 10uM of `CC1(C)C(c2ccccc2)=NC(c2cccnc2)=[N+]1[O-]` , please.
Output: 14.8

Task: I am curious: what hERG current change (%, negative = inhibition) at 10uM value has been reported for `CCN(CC)N=Nc1cccc(NC(C)=O)c1` ?
Output: 0.363

Task: What does the record list as hERG current change (%, negative = inhibition) at 10uM for `Cc1ccc2[nH]c(=O)c(CN(CCCN3CCOCC3)C(=O)Nc3cccc(Cl)c3)cc2c1` ?
Output: -32.4

Task: Which hERG current change (%, negative = inhibition) at 10uM value is on record for `O=C(CSc1nnc(SCc2ccc(F)cc2)s1)Nc1ccc(C(=O)O)cc1` ?
Output: 18.6

Task: # get_value(readout='hERG current change (%, negative = inhibition) at 10uM', item= `CCc1ccc2[nH]c(=O)c(CN(CCN3CCOCC3)C(=O)Nc3ccccc3F)cc2c1` )
Output: -23.1

Task: Would you kindly share the measured hERG current change (%, negative = inhibition) at 10uM for `Brc1ccc(Nc2c3c(nc4ncnn24)CCC3)cc1` ?
Output: -21.4
